- target: Calcium-dependent protein kinase 4 (Plasmodium falciparum (isolate 3D7)) (UniProt Q8IBS5)
- Sequence (Q8IBS5 whole entry, looked up): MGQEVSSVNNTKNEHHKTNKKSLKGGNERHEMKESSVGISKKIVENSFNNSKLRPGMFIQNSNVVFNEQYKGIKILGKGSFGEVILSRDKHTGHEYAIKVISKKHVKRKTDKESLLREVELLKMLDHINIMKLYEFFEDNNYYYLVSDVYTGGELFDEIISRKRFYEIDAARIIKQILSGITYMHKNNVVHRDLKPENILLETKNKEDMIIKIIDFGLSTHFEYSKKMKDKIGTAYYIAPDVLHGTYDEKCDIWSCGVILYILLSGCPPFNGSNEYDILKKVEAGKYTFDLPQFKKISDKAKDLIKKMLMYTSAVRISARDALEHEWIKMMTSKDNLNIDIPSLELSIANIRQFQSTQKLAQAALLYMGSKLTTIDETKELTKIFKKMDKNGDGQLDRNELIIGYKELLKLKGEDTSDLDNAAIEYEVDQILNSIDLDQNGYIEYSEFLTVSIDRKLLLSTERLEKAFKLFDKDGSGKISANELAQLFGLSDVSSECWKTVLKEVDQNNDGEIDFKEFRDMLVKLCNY
- assay_name: PfCDPK4 kinase inhibitors, biochemical, TCAMS library (AID 1159588)
- condition_parameters: recombinant PfCDPK4, Kinase-Glo ATP depletion luminescence
Entries with a potency or affinity are not part of this list. Activity calls are given as the source filed them. Cut-off not given; nearly all actives show IC50 up to about 0.91 µM.
readout_name: outcome

These solved cases illustrate the format of a correct answer.
> print(dat)
                                   molecule  experimental.value
1                            NOCCCOc1ccccc1            inactive
2  O=C(Nc1cccc(Oc2ccccc2)c1)N[C@H]1CCN(Cc2ccc(OCCCN3CCCCC3)cc2)C1            inactive
3          OCCNc1nc(Nc2ccc(F)cc2)nc2ccccc12            inactive
4  Cc1cc2c(cc1C(F)(F)F)N(C(=O)Nc1cc(C(=O)NCCN(C)C)cc(C(F)(F)F)c1)CC2            inactive
5  COc1ccc(Cl)cc1N1CCN(CCCNC(=O)c2ccc(-c3nc4ccc(C(F)(F)F)cc4[nH]3)c(C)c2)CC1            inactive

Req: Entry CC(C)Cc1nc(N2CCOCC2)c2nnn(Cc3ccccc3)c2n1 has what outcome?
Resp: inactive

Req: Query CC1CN(Cc2cccc(F)c2)CCN1c1ccc(NC(=O)c2cccs2)cc1 (stereo not given) next
Resp: inactive

Req: Param item: COc1ccc(S(=O)(=O)NC2CCN(c3ccc(C(F)(F)F)cc3NC(=O)OCC(C)C)CC2)cc1
Resp: inactive

Req: Now this one: CCOC(=O)C(CO)NC(=O)c1ccc([N+](=O)[O-])o1 (stereo not given)
Resp: inactive

Req: Thanks! And CN1CCC(N(Cc2ccc(-c3ccc(Cl)cc3)cc2)C(=O)Cn2c(CCc3cccc(F)c3F)cc(=O)c3ccccc32)CC1 ?
Resp: inactive

----------
- assay_name: antimalarial activity against Dd2 strain (AID 2302);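 further: 0% = DMSO untreated growth and 100% = chloroquine plus artemisinin killed control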
- condition_parameters: P. falciparum Dd2 in RBCs, LDH growth readout, 72 h; at 2 µM; active compounds read high
Documented growth inhibition across a set of compounds
// units = %; emit number, no label

Here are 4 compounds together with their reported answers.
> print(dat)
                                   compound  experimental.value
1  CC(=O)OCCN1C(=O)c2ccc3c4c(ccc(c24)C1=O)C(=O)N(CCOC(C)=O)C3=O                   1
2  CNC(=O)C1Cc2c([nH]c3c(C)cccc23)C2(N1)C(=O)Nc1ccc(OC(F)(F)F)cc12 (stereo not given)                  50
3  Cc1ccc(F)c(C(=O)Nc2cccc(-c3nn4ccccc4c3-c3ccnc(Nc4cccc(F)c4)n3)c2)c1F                  60
4  CC(C)(C)c1ccc(OCC(=O)NC2CCN(c3ccnc4cc(Cl)ccc34)C2)cc1 (stereo not given)                 100

Req: Name the recorded growth inhibition for CNCCCNCc1ccc(-c2ccc(F)c(Cl)c2)o1 .
Resp: 12

----------
- assay_name: antimalarial activity against Dd2 strain (AID 2302);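 further: 0% = DMSO untreated growth and 100% = chloroquine plus artemisinin killed control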
- condition_parameters: P. falciparum Dd2 in RBCs, LDH growth readout, 72 h; at 2 µM
Calls of active or inactive are those of the source.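 How the source made its calls: active means growth inhibition above 50% at the single 2 µM test dose, taken to imply half-maximal potency below 2 µM; inactive means the rest.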
Choose one outcome from this list and give only that: 1 (active), 0 (inactive)

> print(dat)
                                   compound  class
1  Cc1ccc(C(O)CNc2ccnc(Nc3cccc(-c4csc(C)n4)c3)n2)cc1 (stereo not given)      0
2  Fc1cc(Cl)ccc1Nc1ccnc(Nc2ccc3cn[nH]c3c2)n1      1
3  CC(C)Nc1nc(NCCc2cnc[nH]2)nc(Nc2ccc(Oc3ccccc3)cc2)n1      0
4  Cc1ccc(NC(=O)c2ccc3ncccc3c2)cc1OC1CCN(CCC(C)C)C1 (stereo not given)      1
5  Cc1nc(-c2nc(NCCc3c(C)noc3C)ncc2-c2ccsc2)sc1C      1

Req: Hi, do you know how COc1ccc2ncc(F)c([C@@H](O)CN3CCC(NCc4cc5c(cn4)OCCO5)CC3)c2c1 came out in this test?
Resp: 1

Req: Now consider O=S(=O)(Nc1cccc(CCN2CCCCC2CCN2CCCC2)c1)c1ccc(-c2ccccc2)cc1 (stereo not given) and answer again.
Resp: 0

Req: Entry O=C(Nc1ccc(CCNC2=NCCN2)cc1)Nc1ccc(CCNC2=NCCN2)cc1 please
Resp: 1

Req: Next record, please: CC(C)(C)C1CC(=O)C[C@@H]2C(=O)N(c3ccc(Br)cc3)C(=O)[C@H]12 (stereo not given in full)
Resp: 0

Req: Check FC(F)(F)c1cc(Nc2ccc(Oc3ccccc3)cc2)c2cc(-c3ccncc3)ccc2n1 too.
Resp: 1

Req: Same question, CS(=O)(=O)CCNc1cc(N2CCc3ncnc(Nc4ccc(OCc5cccc(F)c5)c(Cl)c4)c3C2)ncn1 this time
Resp: 1

Req: Now the compound CCN(CC)CCCC(C)Nc1c2cc(OC)ccc2nc2cc(Cl)c([N+](=O)[O-])cc12 (stereo not given)
Resp: 1

Req: Try this compound next: O=C(/C=C/c1ccc(Cl)c(Cl)c1)NCCCCCN1CCC(NC(=O)Nc2ccc(Cl)c(C(F)(F)F)c2)CC1
Resp: 0

Req: Another: COc1ccc(-c2nnc(Sc3ccc(C#N)c([N+](=O)[O-])c3)n2CCC(C)C)cc1
Resp: 1

Req: Follow-up item: Cc1cc(CNCCCCCNCc2ccc(Cl)cc2)ccc1O
Resp: 0

Req: Now consider Cc1nnc(Sc2ncnc3scc(-c4ccc(F)cc4)c23)s1 and answer again.
Resp: 1

Req: Try this compound too: O=c1cc(NCCCNCc2ccccc2-c2ccccc2)[nH]c2ccccc12
Resp: 0

Req: O=c1cc(NCCCNCc2csc(Br)c2Sc2ccc(Cl)cc2)[nH]c2ccccc12 ?
Resp: 1

Req: CC(C)CCOc1ccc(NC(=O)c2cccs2)cc1 , same question.
Resp: 1

Req: What do you have for Cc1cc(C(=O)NCc2ccc(-c3c(C)noc3C)cc2)n(-c2ccc(Cl)cc2)n1 ?
Resp: 1
